Target: Small conductance calcium-activated potassium channel protein 3 (Rattus norvegicus, UniProt P70605)
Sequence (P70605 whole entry): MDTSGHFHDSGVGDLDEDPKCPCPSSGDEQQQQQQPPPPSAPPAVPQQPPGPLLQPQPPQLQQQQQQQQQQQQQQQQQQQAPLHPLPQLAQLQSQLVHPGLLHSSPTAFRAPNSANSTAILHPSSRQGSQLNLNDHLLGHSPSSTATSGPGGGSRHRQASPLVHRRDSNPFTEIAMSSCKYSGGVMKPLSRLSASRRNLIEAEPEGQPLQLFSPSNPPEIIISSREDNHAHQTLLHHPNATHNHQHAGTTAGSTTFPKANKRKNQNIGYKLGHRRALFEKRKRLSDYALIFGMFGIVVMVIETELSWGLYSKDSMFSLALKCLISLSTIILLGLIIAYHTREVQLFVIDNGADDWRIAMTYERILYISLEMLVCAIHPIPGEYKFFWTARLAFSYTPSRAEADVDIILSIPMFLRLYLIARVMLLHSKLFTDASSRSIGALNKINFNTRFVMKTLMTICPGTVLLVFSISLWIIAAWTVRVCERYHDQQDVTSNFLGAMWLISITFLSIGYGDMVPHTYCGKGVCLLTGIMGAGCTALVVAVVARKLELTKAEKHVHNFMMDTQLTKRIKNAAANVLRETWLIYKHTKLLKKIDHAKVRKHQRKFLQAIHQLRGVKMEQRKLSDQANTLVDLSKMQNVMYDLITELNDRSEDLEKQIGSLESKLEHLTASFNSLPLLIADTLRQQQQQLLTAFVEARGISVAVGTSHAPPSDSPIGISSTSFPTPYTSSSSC
Assay: Inhibition of Wistar rat recombinant SK3 channel expressed in HEK293 cells by whole cell patch clamp technique
measured-endpoint: Kd (nM)

I = Clc1cccc2c1CCCC2Nc1nc2ccccc2[nH]1 (stereo not given)
II = COc1ccc(C[C@H]2c3cc(OC)c(OC)cc3CC[N+]2(C)C)cc1OC [LAUDANOSINE METHIODIDE]
III = Clc1ccc2c(c1)CCCC2Nc1nc2ccccc2[nH]1 (stereo not given)
IV = c1ccc2c(c1)CCCCC2Nc1nc2ccccc2[nH]1 (stereo not given)
V = Cc1ccc2c(c1)C(Nc1nc3ccccc3[nH]1)CCC2 (stereo not given)
Please put the entries in order of rising Kd. In plain terms: list the labels in the order you were asked to.
V, I, III, IV, II
(V: 20 nM, I: 44 nM, III: 120 nM, IV: 590 nM, II: 2600 nM)

1 = Cc1cc(C)c2c(c1)C(Nc1nc3ccccc3[nH]1)CCC2 (stereo not given)
2 = c1ccc(CNc2nc3ccccc3[nH]2)cc1
Field: lower Kd | Options: 1 / 2 Please respond with the label that marks your chosen entry.
1
(1: 33 nM, 2: 2700 nM)

a = c1ccc2c3c(ccc2c1)CCCC3Nc1nc2ccccc2[nH]1 (stereo not given)
b = c1ccc2c(c1)CCN(c1nc3ccccc3[nH]1)C2
Hi! Which is lower in terms of Kd, the first one a or the second one b ? Refer to your chosen item by its label in the answer.
a
(a: 31 nM, b: 14000 nM)

###

Molecular target: Small conductance calcium-activated potassium channel protein 3 (Rattus norvegicus)
Assay: Inhibition of Wistar rat recombinant SK3 channel expressed in HEK293 cells by whole cell patch clamp technique
pKd: −log10 of the molar value.
measured-endpoint: pKd

a = Fc1ccc2c(c1)C(Nc1nc3ccccc3[nH]1)CCC2 (stereo not drawn)
b = Clc1ccc2c(c1)C(Nc1nc3ccccc3[nH]1)CCC2 (stereo not drawn)
c = c1ccc2c(c1)CC(Nc1nc3ccccc3[nH]1)C2
Sort ascending by pKd: all records listed above. When ranking, write the labels in the order the request describes.
c, a, b
(c: 5.77, a: 7.47, b: 7.77)

###

Assay: Inhibition of human SK3 channel Q493A;D495A mutant expressed in HEK293 cells
Assay type: cell-based
measured-endpoint: Kd (nM)
Please respond with the number in nM and leave the unit unwritten.

Which measured Kd value corresponds to c1ccc2c(c1)CCC[C@H]2Nc1nc2ccccc2[nH]1 ?
430

###

Target: Small conductance calcium-activated potassium channel protein 3 (Rattus norvegicus)
Assay: Inhibition of Wistar rat recombinant SK3 channel expressed in HEK293 cells by whole cell patch clamp technique
pKd: −log10 of the molar value.
measured-endpoint: pKd

molecule	value
c1ccc2c(c1)CCC(Nc1nc3ccccc3[nH]1)C2 (stereo unspecified)	5.70

a = Clc1cccc2c1C(Nc1nc3ccccc3[nH]1)CCC2 (stereo unspecified)
b = Cc1cc(N)c2ccccc2[n+]1CCCCCCCCCC[n+]1c(C)cc(N)c2ccccc21 [DEQUALINIUM CHLORIDE]
c = Clc1cc2c(cc1Cl)C(Nc1nc3ccccc3[nH]1)CCC2 (stereo unspecified)
d = Clc1ccc(CNc2nc3ccccc3[nH]2)cc1
e = c1ccc2c(c1)CCC[C@H]2Nc1nc2ccccc2[nH]1
Sort the molecules on pKd; start with the lowest figure. Write out the labels following the order that was asked for.
d, b, e, a, c

1 = c1ccc2c(c1)CCC[C@@H]2Nc1nc2ccccc2[nH]1
2 = CC1CCc2ccccc2C1Nc1nc2ccccc2[nH]1 (stereo unspecified)
Smaller pKd value? Options are 1 and 2 # answer = label of selected item
1

a = Clc1ccc(CNc2nc3ccccc3[nH]2)cc1Cl
b = c1ccc2[nH]c(NC3CCCc4sccc43)nc2c1 (stereo unspecified)
Of a and b , whose reported pKd is the larger number? API: response body contains the label of the selected item.
a

###

Target: Small conductance calcium-activated potassium channel protein 3 (Rattus norvegicus)
Assay: Inhibition of Wistar rat recombinant SK3 channel expressed in HEK293 cells by whole cell patch clamp technique
measured-endpoint: Kd (µM)

compound	Kd, µM
c1ccc(C2CCCCN2c2nc3ccccc3[nH]2)cc1 (stereo unspecified)	0.75

I = c1ccc2[nH]c(NC3CCCc4ccncc43)nc2c1 (stereo unspecified)
II = c1ccc(C2CCCN2c2nc3ccccc3[nH]2)cc1 (stereo unspecified)
III = c1ccc(-c2ccc3c(c2)C(Nc2nc4ccccc4[nH]2)CCC3)cc1 (stereo unspecified)
IV = COc1ccc2c(c1)C(Nc1nc3ccccc3[nH]1)CCC2 (stereo unspecified)
V = c1ccc2c(c1)CCCC2Nc1nc2ccccc2[nH]1 (stereo unspecified)
Sort ascending by Kd. Answer by writing out the labels in the requested order.
IV, V, III, II, I

###

Target: Small conductance calcium-activated potassium channel protein 3 (Homo sapiens)
Sequence (Q9UGI6 whole entry): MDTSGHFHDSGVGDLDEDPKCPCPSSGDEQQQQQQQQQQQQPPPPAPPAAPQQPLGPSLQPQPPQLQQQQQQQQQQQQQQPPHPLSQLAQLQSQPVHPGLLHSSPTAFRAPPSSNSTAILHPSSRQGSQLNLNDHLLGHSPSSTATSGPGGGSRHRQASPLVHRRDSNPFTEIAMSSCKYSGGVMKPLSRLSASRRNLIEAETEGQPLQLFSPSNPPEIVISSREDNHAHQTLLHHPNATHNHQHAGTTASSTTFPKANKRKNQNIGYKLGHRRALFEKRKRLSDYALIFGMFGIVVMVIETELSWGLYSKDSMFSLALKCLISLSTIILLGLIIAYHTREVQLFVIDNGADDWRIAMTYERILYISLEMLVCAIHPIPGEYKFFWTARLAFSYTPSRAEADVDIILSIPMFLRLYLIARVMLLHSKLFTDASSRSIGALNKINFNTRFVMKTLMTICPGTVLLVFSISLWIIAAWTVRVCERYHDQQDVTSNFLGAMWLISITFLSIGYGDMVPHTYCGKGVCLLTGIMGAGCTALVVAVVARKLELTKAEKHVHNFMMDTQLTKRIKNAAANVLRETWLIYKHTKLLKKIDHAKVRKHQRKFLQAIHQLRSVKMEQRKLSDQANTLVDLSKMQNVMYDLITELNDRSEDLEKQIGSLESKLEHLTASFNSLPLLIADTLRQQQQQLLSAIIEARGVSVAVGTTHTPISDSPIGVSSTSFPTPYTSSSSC
Experiment: Inhibition of human SK3 channel expressed in HEK293 cells assessed as Ca2+ induced current after drug wash out by whole cell patch clamp technique in presence of bicuculline methobromide
Type: cell-based
measured-endpoint: Kd (nM)
Write the number in nM without appending the unit.

Can you share its Kd? I mean this compound: Clc1cc2c(cc1Cl)C(Nc1nc3ccccc3[nH]1)CCC2 (stereo unspecified)
7.8

###

Target: Small conductance calcium-activated potassium channel protein 3 (Rattus norvegicus, UniProt P70605)
Assay: Inhibition of Wistar rat recombinant SK3 channel expressed in HEK293 cells by whole cell patch clamp technique
measured-endpoint: Kd (nM)

Examples with their reported Kd follow.
molecule	measure-unit	value
CC(=O)O[C@H]1C[C@@H]2CC[C@@H]3[C@H](CC[C@@]4(C)[C@H]3CC[C@H]([N+]3(C)CCCCC3)[C@@H]4OC(C)=O)[C@@]2(C)C[C@@H]1[N+]1(C)CCCCC1 [PENUCURONIUM]	nM	21000
c1cc2cc(c1)C[n+]1ccc(c3ccccc31)NCc1ccc(cc1)CNc1cc[n+](c3ccccc13)C2	nM	2.7
COc1cc2c3cc1Oc1cc(ccc1O)C[C@@H]1c4c(cc(OC)c(O)c4Oc4ccc(cc4)C[C@@H]3N(C)CC2)CC[N+]1(C)C	nM	16000

a = c1ccc2c(c1)SCCC2Nc1nc2ccccc2[nH]1 (stereo unspecified)
b = c1ccc2c(c1)CCC2Nc1nc2ccccc2[nH]1 (stereo unspecified)
c = Brc1ccc2c(c1)C(Nc1nc3ccccc3[nH]1)CCC2 (stereo unspecified)
d = CC1CCC(Nc2nc3ccccc3[nH]2)c2ccccc21 (stereo unspecified)
e = COc1ccc(CC2c3cc(OC)c(OC)cc3CC[N+]2(C)CCC(=O)OCCCCCOC(=O)CC[N+]2(C)CCc3cc(OC)c(OC)cc3C2Cc2ccc(OC)c(OC)c2)cc1OC (stereo unspecified) [ATRACURIUM]
Please give the order of these molecules when sorted by Kd, largest value leading. Lab note: final answer is the ordered label list.
e, b, a, d, c

###

Molecular target: Small conductance calcium-activated potassium channel protein 3 (Rattus norvegicus)
Experiment: Inhibition of Wistar rat recombinant SK3 channel expressed in HEK293 cells by whole cell patch clamp technique
pKd: −log10 of the molar value.
Each entry below carries its reported pKd.

Solved entries:
compound	pKd
c1ccc2c(c1)OCCC2Nc1nc2ccccc2[nH]1 (stereo not drawn)	< 5.00
O=C(Nc1nc2ccccc2[nH]1)c1ccc(Cl)cc1	< 5.00

Quick one: pKd of c1ccc(CCc2nc3ccccc3[nH]2)cc1 ?
< 5.00

Where do the numbers come from? From ChEMBL document CHEMBL1140213.
